read-out: Bcl-2 (BAX) gene, BAX (gene 581); test: LTEA_HepaRG_BAX: Life Technologies and Expression Analysis (LTEA) Assay for Bcl-2 (BAX) gene using HepaRG (AID 2283470); settings: mRNA level, 48 h; actives raise or lower the signal
Active and inactive are the calls of the source. How the source made its calls: active means hit-call score of the fitted dose curve at least 0.9, where 1 is the maximum; inactive means score below 0.9.
metric_name: AC50

# count of solved cases: 6
item_smiles=ClCCOCCCl metric_name=AC50 result=inactive
item_smiles=O=C(Oc1ccc(Br)cc1)N1CCN2CCC1CC2 metric_name=AC50 result=inactive
item_smiles=OCCCl metric_name=AC50 result=inactive
item_smiles=Cc1ccc(N)cc1 metric_name=AC50 result=inactive
item_smiles=c1ccc2c(c1)oc1ccccc12 metric_name=AC50 result=inactive
item_smiles=CC(C)(O)c1cnn2c(-c3ccc(F)c(-c4c(F)cccc4C#N)c3)cnc2n1 metric_name=AC50 result=inactive

I'd like to know its AC50. The molecule in question is `Nc1ccc(N=Nc2ccccc2)cc1`
6.31 µM (active)

Entry `ClC1=C(Cl)[C@]2(Cl)[C@H]3[C@H]([C@@H]4C=C[C@H]3C4)[C@@]1(Cl)C2(Cl)Cl` please
inactive

###

Read-out: Cytochrome P450 4A22 (Homo sapiens)
Assay: LTEA_HepaRG_CYP4A22: Life Technologies and Expression Analysis (LTEA) Assay for Cytochrome P450 4A22 (CYP4A22) using HepaRG (AID 2283495)
Conditions: mRNA level, 48 h; actives raise or lower the signal
Protocol: LTEA_HepaRG is a cell based, multiplexed-readout assay that uses HepaRG, a human liver cell line, with measurements taken at 48 hours after chemical dosing on a 96-well plate.LTEA_HepaRG_CYP4A22 is one of 102 assay component(s) measured in the LTEA HepaRG cell culture assay. It is a marker of NR mediated metabolism.Data from the assay component LTEA_HepaRG_CYP4A22 was analyzed into 1 endpoint. […]
The source made the active and inactive calls. Rule for the calls: active = hit-call score of the fitted dose curve at least 0.9, where 1 is the maximum; inactive = score below 0.9.
Could you please pick one outcome from this set? class 1 for active, class 0 for inactive

A selection of reference data follows.
item_smiles=Brc1ccc(Oc2ccccc2)cc1 category_label="class 0"
item_smiles=CC(C)(O)c1cnn2c(-c3ccc(F)c(-c4c(F)cccc4C#N)c3)cnc2n1 category_label="class 1"
item_smiles=CC(C)COC(=O)c1ccccc1C(=O)OCC(C)C category_label="class 0"
item_smiles=O=[N+]([O-])C(Br)(CO)CO category_label="class 0"
item_smiles=CNC(=O)Oc1cccc2c1OC(C)(C)C2 category_label="class 0"

I'd appreciate the recorded outcome for `COC(=O)c1ccccc1N` from this test.
class 0

Proceed to `Cc1ccc([N+](=O)[O-])cc1`
class 0

###

target: human CYP2C9, CYP2C9 (gene 1559); assay: NVS_ADME_hCYP2C9: NovaScreen (NVS) CYP450-related Enzyme Activity (ADME) Assay for human CYP2C9 (AID 2283108)
Results filed as inconclusive are left out. Activity calls are given as the source filed them. How the source made its calls: active means hit-call score of the fitted dose curve at least 0.9, where 1 is the maximum; inconclusive means response in the unintended direction; inactive means score below 0.9.
Quick reference: AC50 of the listed items.

The following compounds have reported results that may help.
compound=O=[N+]([O-])C(Br)(CO)CO metric_name=AC50 result="3.26 µM (active)"
compound=Oc1ccc2ccc3cccc4ccc1c2c34 metric_name=AC50 result="2.53 µM (active)"
compound=CCCCCCCCn1sccc1=O metric_name=AC50 result="7.51 µM (active)"
compound=CCC12COCN1COC2 metric_name=AC50 result="3.73 µM (active)"
compound=CCOC(=O)[C@]1(c2ccccc2)Oc2ccccc2[C@@H]1N metric_name=AC50 result="5.79 µM (active)"

Given the entry CC(C)(C)C(O)(CCc1ccc(Cl)cc1)Cn1cncn1 (stereo unspecified) , report its measured AC50.
6 µM (active)

###

Test: Tanguay_ZF_120hpf_EYE_legacy: (Legacy) Oregon State University Tanguay Lab 120 Hour Post-fertilization zebrafish Assay for Eye Malformation (AID 2283636);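 further: binary presence or absence of eye malformation scored by brightfield in 120 hpf larvae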
Protocol: Tanguay_ZF_120hpf_legacy is a whole embryo, multiplexed endpoint assay using zebrafish larvae exposed for 120 hours post fertilization on a 96-well plate.Tanguay_ZF_120hpf_EYE_legacy is one of one assay component(s) measured or calculated from the Tanguay_ZF_120hpf_legacy assay. […] This assay endpoint, Tanguay_ZF_120hpf_EYE_legacy, was analyzed in the positive analysis fitting direction relative to DMSO as the negative control and baseline of activity. […]
Inconclusive results are not listed. The source made the active and inactive calls. How the source made its calls: active means hit-call score of the fitted dose curve at least 0.9, where 1 is the maximum; inconclusive means response in the unintended direction; inactive means score below 0.9.
Mark one answer only. Choices: class 1 = active, class 0 = inactive

molecule=COP(=S)(OC)SCN1C(=O)c2ccccc2C1=O category_label="class 0"

Now consider the entry below.
Any idea what this test logged for `OCCCl` ?
class 0

###

read-out: E-selectin (Homo sapiens); test: BSK_3C_Eselectin: BioMAP Diversity Plus: 3C Assay for Eselectin Biomarker Activity (AID 2283015); conditions: primary human endothelial cells (HUVEC); actives raise or lower the signal;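 on outcome: cell surface E-selectin protein quantified by ELISA 24 h after dosing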
Calls of active or inactive are those of the source. Rule for the calls: active = hit-call score of the fitted dose curve at least 0.9, where 1 is the maximum; inactive = score below 0.9.
Tick one outcome: active, inactive

molecule=N#CC(Br)(Br)C(N)=O category_label=inactive
molecule=CCN(CC)CCO category_label=inactive
molecule=c1ccc(N=Nc2ccccc2)cc1 category_label=inactive
molecule=O=Cc1ccco1 category_label=inactive

With those in mind, consider the next molecule.
What call does the record list for `CCC[CH2][Sn]([Cl])([CH2]CCC)[CH2]CCC` ?
active

###

test: APR_HepG2_MitoMass_24hr: Apredica 24-hour HepG2 Assay for Mitochondrial Mass (AID 2282912); conditions: high-content imaging, actives raise or lower the signal
The source made the active and inactive calls. The calls were made as follows: active = hit-call score of the fitted dose curve at least 0.9, where 1 is the maximum; inactive = score below 0.9.
Please reply with one of these outcomes: Yes (active), No (inactive)

Some entries whose results are on file:
molecule="ClC1=C(Cl)C2(Cl)C3C(Cl)C=CC3C1(Cl)C2(Cl)Cl (stereo unspecified)" category_label=Yes
molecule=CO[C@@H]1[C@H](OC(=O)NC(=O)CCl)CC[C@]2(CO2)[C@H]1[C@@]1(C)O[C@@H]1CC=C(C)C category_label=No
molecule=CCN(CC)N=O category_label=No
molecule=[O-][Cl+]O category_label=No
molecule=COC(=O)c1ccccc1N category_label=No
molecule=CC(C)(C)OOC(C)(C)CCC(C)(C)OOC(C)(C)C category_label=Yes
molecule=Clc1ccccc1Cl category_label=No
molecule=OCCOCCO category_label=No

// return assay outcome for `CN(C)C(=O)Nc1ccc(Cl)cc1`
No

Also, `N#CC(Br)Br` please.
Yes

Next molecule: `c1ccc2c(c1)oc1ccccc12`
No

What about this molecule? `O=[N+]([O-])c1ccc(Oc2ccc(Cl)cc2Cl)cc1`
No

Then this molecule: `Cn1cc(-c2ccccc2)c(=O)c(-c2cccc(C(F)(F)F)c2)c1`
No

Subsequent entry: `O=C1CCCO1`
No

Query `N#CC(Br)(Br)C(N)=O` next
No

Same thing, different molecule: `CCC12COCN1COC2`
No

Another molecule: `CC(C)N(Cc1ccccc1)C(=O)C(C)(C)C`
No

###

test: ATG_CMV_CIS: Attagene CIS-FACTORIAL HepG2 Assay for human CMV (Internal Marker) (AID 2282928); conditions: HepG2 CMV promoter reporter, transcription factor profiling; actives raise or lower the signal;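 further: endpoint acts as a background internal control marker rather than a target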
The source made the active and inactive calls. How the source made its calls: active means hit-call score of the fitted dose curve at least 0.9, where 1 is the maximum; inactive means score below 0.9.
Lab note: assign the record to one of y (active), n (inactive)

As a guide, the following entries are already answered.
compound=CCC[CH2][Sn]([Cl])([CH2]CCC)[CH2]CCC category_label=y
compound="CCCCCCCCCCCCCN1CC(C)OC(C)C1 (configuration not stated)" category_label=y
compound=O=C(Nc1ccccc1)c1ccccc1I category_label=n

Please look at the following compound next.
Outcome? `Cc1ccc([N+](=O)[O-])cc1`
n

###

molecular target: Signal transducer and activator of transcription 3 (Homo sapiens) (UniProt P40763); test: ATG_STAT3_CIS: Attagene CIS-FACTORIAL HepG2 Assay for human Signal Transducer and Activator of Transcription 3 (STAT3) (AID 2282963); conditions: HepG2, Attagene cis-factorial STAT3 reporter transcription; actives raise or lower the signal
Sequence (P40763 whole entry, looked up): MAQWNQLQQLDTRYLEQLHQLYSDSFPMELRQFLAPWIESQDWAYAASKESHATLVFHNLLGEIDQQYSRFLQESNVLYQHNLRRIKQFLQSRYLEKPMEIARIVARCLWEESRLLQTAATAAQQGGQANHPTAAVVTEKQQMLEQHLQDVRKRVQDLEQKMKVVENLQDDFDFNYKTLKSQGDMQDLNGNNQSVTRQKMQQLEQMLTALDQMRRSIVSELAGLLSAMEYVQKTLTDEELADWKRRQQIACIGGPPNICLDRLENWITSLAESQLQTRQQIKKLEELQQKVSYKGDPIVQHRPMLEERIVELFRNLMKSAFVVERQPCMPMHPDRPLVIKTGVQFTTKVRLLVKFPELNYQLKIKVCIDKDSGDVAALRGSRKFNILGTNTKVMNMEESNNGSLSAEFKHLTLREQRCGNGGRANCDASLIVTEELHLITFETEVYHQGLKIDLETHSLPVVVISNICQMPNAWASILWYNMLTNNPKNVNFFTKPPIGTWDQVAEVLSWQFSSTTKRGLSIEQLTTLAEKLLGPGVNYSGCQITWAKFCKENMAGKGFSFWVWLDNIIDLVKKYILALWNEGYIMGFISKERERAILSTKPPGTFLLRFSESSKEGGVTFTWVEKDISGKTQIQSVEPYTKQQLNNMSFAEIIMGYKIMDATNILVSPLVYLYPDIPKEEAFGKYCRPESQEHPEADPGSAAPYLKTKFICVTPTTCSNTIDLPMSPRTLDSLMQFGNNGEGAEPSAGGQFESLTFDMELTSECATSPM
The source made the active and inactive calls. The calls were made as follows: active = hit-call score of the fitted dose curve at least 0.9, where 1 is the maximum; inactive = score below 0.9.
Entry note: the call must match one of active, inactive

compound=O=Cc1ccco1 category_label=inactive
compound=CN(C)c1ccc(C(=O)c2ccc(N(C)C)cc2)cc1 category_label=inactive
compound=O=C(Oc1ccc(Br)cc1)N1CCN2CCC1CC2 category_label=inactive
compound="CC(O)CCO (centres undefined)" category_label=inactive
compound=Cc1ccc(N)cc1 category_label=inactive

What classification did `CC(C)COC(=O)c1ccccc1C(=O)OCC(C)C` end up with in this test?
inactive

What do we get for `Nc1ccc(N=Nc2ccccc2)cc1` ?
inactive

###

assay: CCTE_Mundy_HCI_hNP1_Pro_ResponderAvgInten: CCTE's Proliferation Assay in human neuroprogenitor cells, Mundy Lab (AID 2284224);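 further: human neural progenitor cells hNP1 derived from WA09 embryonic stem cells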
Inconclusive results are not listed. Calls of active or inactive are those of the source. Rule for the calls: active = hit-call score of the fitted dose curve at least 0.9, where 1 is the maximum; inconclusive = response in the unintended direction; inactive = score below 0.9.
# valid calls are active, inactive; nothing else

Completed entries (count: 2):
item_smiles=CCCCOC(=O)c1ccccc1C(=O)OCc1ccccc1 category_label=inactive
item_smiles=CCC[CH2][Sn]([Cl])([CH2]CCC)[CH2]CCC category_label=active

Query: recorded result category for `COP(=S)(OC)SCN1C(=O)c2ccccc2C1=O` in this test
inactive

Likewise for `OCCOCCO` ?
inactive
